Target: p53 Y220C (Homo sapiens, UniProt P04637, Y220C)
Test: Luciferase Reporter Assay (Luc), p53 response element, NClH1299 cells with inducible p53 Y220C
Format: cell-based
Conditions: AC50; luciferase reporter, NClH1299 inducible p53 Y220C, 6 hour; read-out: Luc P53 Y220C AC50
Protocol: Luciferase Reporter Assay Protocol The cells were then used for p53 reporter assay. 5,000 cells were seeded in each well of 384 plate and cultured in 0.5 ug/mL doxycycline (D3072; Sigma) containing medium for 24 hours before compound treatment. […] The luciferase activity was immediately measured with PheraStar microplate reader.
Entries annotated with measured AC50

// solved cases for AC50 follow
compound_string	observed_value
C[C@H](O)[C@H](C)NC(=O)c1ccc(NCC#Cc2cc3c(N[C@@H]4CCN(C)C[C@@H]4F)cccn3c2SC(F)(F)F)cc1	< 750 nM
CNC(=O)c1ccc(NCC#Cc2nc3c(N[C@@H]4C[C@H]5CC[C@H](N5)[C@@H]4F)cccn3c2SC(F)(F)F)c(OC)c1	< 750 nM
COc1cc(S(C)(=O)=O)ccc1NCC#Cc1cc2c(N[C@@H]3CCN(C)C[C@@H]3F)cccn2c1SC(F)(F)F	< 750 nM
CNC(=O)c1cc(NCC#Cc2nc3c(N[C@@H]4CCN(C)C[C@@H]4F)cccn3c2SC(F)(F)F)c(OC)nn1	< 750 nM
CNC(=O)c1cnc(OC)c(NCC#Cc2nc3c(N[C@@H]4C[C@H]5CC[C@@H]([C@@H]4F)N5C)cccn3c2SC(F)(F)F)c1	< 750 nM
COc1cc(S(N)(=O)=O)ccc1NCC#Cc1cc2c(N[C@@H]3CCN(C)C[C@@H]3F)cccn2c1SC(F)(F)F	> 3000 nM
CNC(=O)c1ccc(OC2COC2)c(NCC#Cc2cc3c(N[C@@H]4CCN(C)C[C@@H]4F)nccn3c2SC(F)(F)F)c1	< 750 nM
C[C@@H](O)CNC(=O)c1ccc(NCC#Cc2cc3c(N[C@@H]4CCNC[C@@H]4F)cccn3c2SC(F)(F)F)cc1	< 750 nM

Ask: Query: AC50; subject: `CN1CC[C@@H](Nc2cccn3c(SC(F)(F)F)c(C#CCNc4ccc(C(=O)NCC5COC5)cc4)cc23)[C@@H](F)C1`
Result: < 750 nM

Ask: Query: AC50; subject: `CCNC(=O)c1ccc(NCC#Cc2cc3c(N[C@@H]4CCN(C)C[C@@H]4F)nccn3c2SC(F)(F)F)c(OC)c1`
Result: < 750 nM

Ask: Query: AC50; subject: `C[C@H](O)[C@@H](C)NC(=O)c1ccc(NCC#Cc2cc3c(N[C@@H]4CCN(C)C[C@@H]4F)cccn3c2SC(F)(F)F)cc1`
Result: < 750 nM

Ask: Query: AC50; subject: `CNC(=O)c1cnc(OC)c(NCC#Cc2cc3c(N[C@@H]4CCNC[C@@H]4F)nccn3c2SC(F)(F)F)c1`
Result: < 750 nM

Ask: Query: AC50; subject: `CNC(=O)CN1CC[C@@H](Nc2nccn3c(SC(F)(F)F)c(C#CCNc4cc(C(=O)NC)ccc4OC)cc23)[C@@H](F)C1`
Result: < 750 nM

* * *

Target: p53 Y220C (Homo sapiens, UniProt P04637, Y220C)
Test: Luciferase Reporter Assay (Luc), p53 response element, NClH1299 cells with inducible p53 Y220C
Assay type: cell-based
Details: Emax; luciferase reporter, NClH1299 inducible p53 Y220C, 6 hour
reported_property: Emax

compound	Emax
COc1cc(S(C)(=O)=O)ccc1NCC#Cc1cc2c(N[C@@H]3CCN(C)C[C@@H]3F)cccn2c1SC(F)F [Example 344]	> 90%
CN1CC[C@@H](Nc2cccn3c(SC(F)(F)F)c(C#CCNc4ccc(C(=O)NCC5COC5)cc4)cc23)[C@@H](F)C1 [Example 447]	> 90%
CNC(=O)c1ccc(NCC#Cc2nc3c(N[C@@H]4CCOC[C@@H]4F)cccn3c2SC(F)(F)F)c(OCCN(C)C)c1 [Example 226]	70 to 80%

Ask: Query: Emax; subject: CCNC(=O)c1ccc(OC)c(NCC#Cc2nc3c(N[C@@H]4CCN(C)C[C@@H]4F)nccn3c2SC(F)(F)F)c1 [Example 309]
Result: 70 to 80%

* * *

Test system: H1299 p53 R273H
Assay: Cell Proliferation Assay (CellTiter-Glo, CTG), H1299 p53 R273H (NClH1299-inducible p53 R273H)
Format: cell-based
Conditions: Homo sapiens, NCI-H1299, 120 h, CellTiter-Glo, H1299 p53 R273H, 5 days
Structures can show the parent of a compound that is named as a salt.
reported_property: IC50

// solved cases for IC50 follow
compound	reported_property	observed_value
CNC(=O)c1ccc(OC)c(NCC#Cc2cc3c(N[C@@H]4CN(C)C[C@@H]4F)nccn3c2SC(F)(F)F)n1	IC50	≥ 10 µM
COc1ccc(C(=O)N(C)C)cc1NCC#Cc1nc2c(N[C@@H]3CCN(C)C[C@@H]3F)cccn2c1SC(F)(F)F	IC50	5 to 8 µM
CN1CC[C@@H](Nc2cccn3c(CC(F)(F)F)c(C#C[C@@H](O)c4ccccc4)nc23)[C@@H](F)C1	IC50	< 5 µM
CC#Cc1nn2c(N[C@@H]3CCN(C)C[C@@H]3F)cccc2c1CC(F)(F)F	IC50	≥ 10 µM
CNC(=O)c1ccc(OC)c(NCC#Cc2cc3c(N[C@@H]4CCN(C)C[C@@H]4F)cccn3c2SC(F)(F)F)c1	IC50	5 to 8 µM

Ask: Query: IC50; subject: `CNC(=O)c1ccc(NCC#Cc2nn3c(N[C@@H]4CCN(C)C[C@@H]4F)ccnc3c2SC(F)(F)F)c(OC)c1`
Result: ≥ 10 µM

Ask: Query: IC50; subject: `COc1ccc(C(=O)N2CCC2)cc1NCC#Cc1nc2c(N[C@@H]3CCN(C)C[C@@H]3F)cccn2c1SC(F)(F)F`
Result: ≥ 10 µM

Ask: Query: IC50; subject: `COc1cc(S(C)(=O)=O)ccc1NCC#Cc1nc2c(NC3CCN(C(C)C)CC3)cccn2c1CC(F)(F)F`
Result: 5 to 8 µM

Ask: Query: IC50; subject: CNC(=O)c1ccc(NCC#Cc2nc3c(N[C@@H]4CCN(C)C[C@@H]4F)cccn3c2SC(F)(F)F)c(OC)c1 [Example 28, formic acid salt]
Result: 8 to 10 µM

Ask: Query: IC50; subject: COc1cc(S(C)(=O)=O)ccc1NCC#Cc1nc2c(NC3CCN(C)CC3)cc(O)cn2c1CC(F)(F)F [Example 27, TFA salt]
Result: ≥ 10 µM

* * *

System: H1299 p53 Y220C
Assay: Cell Proliferation Assay (CellTiter-Glo, CTG), H1299 p53 Y220C (NClH1299-inducible p53 Y220C)
Type: cell-based
Conditions: Homo sapiens, NCI-H1299, 120 h, CellTiter-Glo, H1299 p53 Y220C, 5 days
reported_property: IC50

// solved cases for IC50 follow
compound	target_entity	IC50
CNC(=O)c1ccc(NCC#Cc2nc3c(N[C@@H]4CCN(C)C[C@@H]4F)cccn3c2CC(F)(F)F)c(Cl)c1 [Example 55]	H1299 p53 Y220C	750 to 1500 nM
CNC(=O)c1ccc(NCC#Cc2cn3c(N[C@@H]4CCN(C)C[C@@H]4F)cccc3c2SC(F)(F)F)c(OC)c1 [Example 139]	H1299 p53 Y220C	< 750 nM
CNC(=O)c1ccc(NCC#Cc2nc3c(N[C@@H]4CCN(C)C[C@@H]4F)cccn3c2C(F)(F)F)c(OC)c1 [Example 97]	H1299 p53 Y220C	> 3000 nM
CNC(=O)c1ccc(NCC#Cc2nc3c(N[C@@H]4CCN(C)C[C@@H]4F)cccn3c2SC(F)(F)F)c(OC(F)F)c1 [Example 105]	H1299 p53 Y220C	< 750 nM
COc1cc(S(C)(=O)=O)ccc1NCC#Cc1nc2c(N[C@@H]3CCNC[C@@H]3F)cccn2c1CC(F)(F)F [Example 8]	H1299 p53 Y220C	750 to 1500 nM

Now let's try a different one.
Ask: Query: IC50; subject: CNC(=O)c1cc(NCC#Cc2nc3c(N[C@@H]4CCN(C)C[C@@H]4F)cccn3c2SC(F)(F)F)c(OC)cn1 [Example 148]
Result: < 750 nM

* * *

Entries annotated with measured Emax
Molecular target: p53 Y220C (Homo sapiens, UniProt P04637, Y220C)
Test: Luciferase Reporter Assay (Luc), p53 response element, NClH1299 cells with inducible p53 Y220C
Type: cell-based
Settings: Emax; luciferase reporter, NClH1299 inducible p53 Y220C, 6 hour

compound_string	Emax
CNC(=O)c1ccc(OC)c(NCC#Cc2cc3c(N[C@@H]4CCN(C)C[C@@H]4F)nccn3c2SC(F)F)n1	> 90%

Now let's try a different one.
Ask: Query: Emax; subject: `CN1CC[C@@H](Nc2cccn3c(SC(F)(F)F)c(C#CCNc4ccc(C(=O)NC[C@H]5CCO5)cc4)cc23)[C@@H](F)C1`
Result: > 90%
